Origin of measurements: the supplement of paper PMC7595190

test system: CMK; experiment: CellTox Green cytotoxicity fluorescence relative to DMSO vehicle (fold of vehicle RFU); higher = more cell death (loss of membrane integrity), active = 2 or more; conditions: 0.01 µM; 72 h
Property measured: CellTox Green cytotoxicity fluorescence

[
  {
    "Compound": "COc1ccc(C2=N[C@@H](c3ccc(Cl)cc3)[C@@H](c3ccc(Cl)cc3)N2C(=O)N2CCNC(=O)C2)c(OC(C)C)c1 [Nutlin-3]",
    "Measurement target": "CMK",
    "Property measured": "CellTox Green cytotoxicity fluorescence",
    "Numeric readout": 0.971
  },
  {
    "Compound": "C=CC(=O)N1CCC(Oc2cc3c(Nc4ccc(Cl)c(Cl)c4F)ncnc3cc2OC)CC1 [Poziotinib]",
    "Measurement target": "CMK",
    "Property measured": "CellTox Green cytotoxicity fluorescence",
    "Numeric readout": 1.02
  },
  {
    "Compound": "COc1ccc(CCNCc2ccc(OCc3ccc(Cl)nc3)c(OC)c2)cc1OC",
    "Measurement target": "CMK",
    "Property measured": "CellTox Green cytotoxicity fluorescence",
    "Numeric readout": 0.979
  },
  {
    "Compound": "CCCCNc1ncc2c(-c3ccc(CN4CCN(C)CC4)cc3)cn([C@H]3CC[C@H](O)CC3)c2n1",
    "Measurement target": "CMK",
    "Property measured": "CellTox Green cytotoxicity fluorescence",
    "Numeric readout": 1
  },
  {
    "Compound": "Nc1nc(F)nc2c1ncn2[C@@H]1O[C@H](CO)[C@@H](O)[C@@H]1O [Fludarabine]",
    "Measurement target": "CMK",
    "Property measured": "CellTox Green cytotoxicity fluorescence",
    "Numeric readout": 1
  },
  {
    "Compound": "CC[C@H](NC(=O)[C@H](C)NC)C(=O)N1C[C@@H](O)C[C@H]1Cc1c(-c2[nH]c3cc(F)ccc3c2C[C@@H]2C[C@H](O)CN2C(=O)[C@H](CC)NC(=O)[C@H](C)NC)[nH]c2cc(F)ccc12 [Birinapant]",
    "Measurement target": "CMK",
    "Property measured": "CellTox Green cytotoxicity fluorescence",
    "Numeric readout": 0.988
  },
  {
    "Compound": "COc1cccc(-n2c(=O)[nH]c3cc(Cl)n(-c4ccc(-c5cccc(OC)c5O)cc4)c3c2=O)c1",
    "Measurement target": "CMK",
    "Property measured": "CellTox Green cytotoxicity fluorescence",
    "Numeric readout": 1.27
  },
  {
    "Compound": "CC(C)c1cc2c(N3CCN(C4=NCC(C)(C)S4)CC3)ncnc2s1 [MI-3 (Menin-MLL Inhibitor)]",
    "Measurement target": "CMK",
    "Property measured": "CellTox Green cytotoxicity fluorescence",
    "Numeric readout": 0.984
  },
  {
    "Compound": "Cn1cc(-c2ccc3c(c2)CCN3C(=O)Cc2cccc(C(F)(F)F)c2)c2c(N)ncnc21",
    "Measurement target": "CMK",
    "Property measured": "CellTox Green cytotoxicity fluorescence",
    "Numeric readout": 0.935
  },
  {
    "Compound": "CC1(C)CCC(c2ccc(Cl)cc2)=C(CN2CCN(c3ccc(C(=O)NS(=O)(=O)c4ccc(N[C@H](CCN5CCOCC5)CSc5ccccc5)c(S(=O)(=O)C(F)(F)F)c4)cc3)CC2)C1 [Navitoclax]",
    "Measurement target": "CMK",
    "Property measured": "CellTox Green cytotoxicity fluorescence",
    "Numeric readout": 0.932
  }
]
